- measurementDescription: Solubility in water by UV method
- reportedConditions: thermodynamic from solid
observable: solubility (µg/mL)
Report the value in µg/mL with no unit label.

For reference, reported solubility for COc1cccc2c1C(=O)c1c(O)c3c(c(O)c1C2=O)C[C@@](O)(C(=O)CO)C[C@@H]3O[C@H]1C[C@H](N)[C@H](O)[C@H](C)O1 [doxorubicin in amine form, doxorubicin] stands at 15
